System: OVCAR-4 ovarian
Assay: NCI tumour cell line growth inhibition, 48 h
readout.kind: TGI

State TGI on OVCAR-4 ovarian. Entry: COc1cc(C(c2cc3c(cc2O)OCO3)N2CCCC2)cc(OC)c1OC (configuration not stated) 34.2 µM

State TGI on OVCAR-4 ovarian. Entry: CCOC(=O)C1C/C(C)=C(/C)SCCCS1 (configuration not stated) > 100 µM

State TGI on OVCAR-4 ovarian. Entry: `O=C1C=C(Nc2cccc(Br)c2)c2ccccc2C1=O` 63.2 µM

State TGI on OVCAR-4 ovarian. Entry: COc1cc(C2C3=C(COC3=O)N(CCO)c3cc4c(cc32)CCC4)cc(OC)c1O (configuration not stated) > 32.5 µM

State TGI on OVCAR-4 ovarian. Entry: `CCOP(=O)(OCC)/C(C#N)=C\c1cccc2ccccc12` > 100 µM

State TGI on OVCAR-4 ovarian. Entry: `O=C1c2ccccc2S(=O)(=O)c2ccccc21` > 100 µM

State TGI on OVCAR-4 ovarian. Entry: `CC1(C)N=C(N)N=C(N)N1c1ccc(OCC(=O)Nc2cccc(S(=O)(=O)F)c2)c(Cl)c1` > 100 µM

State TGI on OVCAR-4 ovarian. Entry: `Clc1ccc2c(Cl)ncnc2c1` > 100 µM

State TGI on OVCAR-4 ovarian. Entry: `N#Cc1c(N)c(-c2ccc(Cl)cc2)c(F)c2ccccc12` > 100 µM

State TGI on OVCAR-4 ovarian. Entry: `CC1=C(C#N)C(N)=C2C(C)=C(C#N)C(N)=C12` > 100 µM

State TGI on OVCAR-4 ovarian. Entry: `O=C(c1ccccc1F)c1c(NCc2ccccc2)c(=O)c1=O` > 100 µM

State TGI on OVCAR-4 ovarian. Entry: CCOC(=O)/C=C1\Nc2ccccc2C12CCc1c([nH]c3ccccc13)C2C(=O)OCC (configuration not stated) > 100 µM
